Task for the reader: assign each of the following molecules its reported selectivity ratio at 24 h.
- test.method.notes: Anti-amastigote activity in infected murine peritoneal macrophages
- Assay type: cell-based, L. infantum
- particulars: Swiss, mouse; CC50 macrophages / EC50 L. infantum amastigotes; read-out: SI - Selective Index (CC50/EC50)
I only need the number, thanks.

Would you kindly share the measured selectivity ratio at 24 h for Nc1ccc(C(=O)N/N=C/c2ccc(Oc3no[n+]([O-])c3-c3ccccc3)cc2)cc1 [Compound 4c] ?
17

Also C[C@@H]1[C@H](O)[C@@H](C)/C=C/C=C/C=C/C=C/C=C/C=C/C=C/[C@H](O[C@@H]2O[C@H](C)[C@@H](O)[C@H](N)[C@@H]2O)C[C@@H]2O[C@](O)(C[C@@H](O)C[C@@H](O)[C@H](O)CC[C@@H](O)C[C@@H](O)CC(=O)O[C@H]1C)C[C@H](O)[C@H]2C(=O)O [Amphotericin B, amphotericin B, reference compound] ?
12

Also need Nc1cccc(C(=O)N/N=C/c2ccc3no[n+]([O-])c3c2)c1 [Compound 4r] , thanks.
11

Same read-out for O=C(N/N=C/c1ccc(Oc2no[n+]([O-])c2-c2ccccc2)cc1)c1ccc(O)cc1 [Compound 4b] ?
54

---

For each entry below, report its melting point value.

What does the record list as melting point for "NC(=O)c1c(COc2ccc(/C=N/NC(N)=S)cc2)no[n+]1[O-]" ?
232 to 234 °C

And the next one, O=C(N/N=C/c1ccc(O)cc1)c1ccc([N+](=O)[O-])cc1 [Compound 14f] ?
266 to 268 °C

Queued: O=C(N/N=C/c1ccc(O)cc1)c1ccccc1 [Compound 14c]
244 to 245 °C

Let us now turn to "NC(=O)N/N=C/c1ccc(OCc2no[n+]([O-])c2C(N)=O)cc1"
228 to 230 °C

Can you check Nc1ccc(C(=O)N/N=C/c2ccc(O)cc2)cc1 [Compound 14e] next?
275 to 276 °C

Input "NC(=O)c1c(COc2ccc(/C=N/NC(=O)c3ccc(O)cc3)cc2)no[n+]1[O-]"
201 to 203 °C

Thanks! And NC(=O)N/N=C/c1ccc(O)cc1 [Compound 14a] ?
224 to 226 °C

Try "NC(=O)c1c(COc2ccc(/C=N/NC(=O)c3ccc(N)cc3)cc2)no[n+]1[O-]" next.
209 to 214 °C

---

- assay.system: recombinant Leishmania cysteine protease LmCPB2.8ΔCTE (CPB) (Leishmania mexicana)
- Construct: The ORF that codes for the Leishmania mexicana CPB, lacking the C terminal extension (CPB2.8ΔCTE); made in house; host or cells: Pichia pastoris X-33
- Sequence (P36400 126-341, stated change not applied): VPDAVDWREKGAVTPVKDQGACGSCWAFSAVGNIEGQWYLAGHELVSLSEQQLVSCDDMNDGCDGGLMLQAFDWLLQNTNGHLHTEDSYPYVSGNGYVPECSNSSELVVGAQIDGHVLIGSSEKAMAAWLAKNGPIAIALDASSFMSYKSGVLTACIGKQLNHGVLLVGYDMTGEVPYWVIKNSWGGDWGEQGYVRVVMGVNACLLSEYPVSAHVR
- test.method.notes: Enzymatic inhibition of recombinant CPB (Z-FR-AMC substrate)
- Assay type: biochemical
# note: exactly 6 µM is not below, so it is not met; use met for IC50 strictly under it

Determine whether this compound shows IC50 lower than 6 µM (ties excluded): "Nc1ccc(C(=O)N/N=C/c2ccc3no[n+]([O-])c3c2)cc1"
not met

Field entry: NC(=O)N/N=C/c1ccc(O)cc1 [Compound 14a]
met

Can you handle CC(C)(C)c1ccc(C(=O)N/N=C/c2ccc(O)cc2)cc1 [Compound 14g] next?
not met

Same question, "O=C(N/N=C/c1ccc(Oc2no[n+]([O-])c2-c2ccccc2)cc1)c1ccc(O)cc1" this time
met

# repeat for "Nc1ccccc1C(=O)N/N=C/c1ccc2no[n+]([O-])c2c1"
not met

// query: NC(=S)N/N=C/c1ccc(O)cc1 [Compound 14b]
not met

What do you have for "NC(=O)c1c(COc2ccc(/C=N/NC(=O)c3ccc(O)cc3)cc2)no[n+]1[O-]" ?
met

Continue with "O=C(N/N=C/c1ccc2no[n+]([O-])c2c1)c1ccc(O)cc1"
not met

Lookup "O=C(N/N=C/c1ccc2no[n+]([O-])c2c1)c1ccccc1O"
met

Again, but for O=C(N/N=C/c1ccc(O)cc1)c1ccccc1 [Compound 14c]
met

Try the compound O=C(N/N=C/c1ccc(O)cc1)c1ccc(O)cc1 [Compound 14d]
met

---

- assay.system: recombinant Leishmania cysteine protease LmCPB2.8ΔCTE (CPB) (Leishmania mexicana)
- Construct: The ORF that codes for the Leishmania mexicana CPB, lacking the C terminal extension (CPB2.8ΔCTE); made in house; host or cells: Pichia pastoris X-33
- test.method.notes: Enzymatic inhibition of recombinant CPB (Z-FR-AMC substrate)
- Assay type: biochemical
recorded.metric: pIC50
Lab note: report pIC50 as minus log10 of the concentration in molar units, number only.

Could you share which pIC50 value was measured for O=C(N/N=C/c1ccc(O)cc1)c1ccc([N+](=O)[O-])cc1 [Compound 14f] ?
5.40

Same thing, different compound: O=C(N/N=C/c1ccc(Oc2no[n+]([O-])c2-c2ccccc2)cc1)c1ccccc1 [Compound 4a]
5.82

What about this compound? Nc1cccc(C(=O)N/N=C/c2ccc3no[n+]([O-])c3c2)c1 [Compound 4r]
5.47

Another: Nc1ccc(C(=O)N/N=C/c2ccc(O)cc2)cc1 [Compound 14e]
5.92

Check NC(=O)N/N=C/c1ccc(Oc2no[n+]([O-])c2-c2ccccc2)cc1 [Compound 4f] too.
5.35

Another compound to look at: CC(C)(C)c1ccc(C(=O)N/N=C/c2ccc(OCc3no[n+]([O-])c3C(N)=O)cc2)cc1 [Compound 4m]
5.22

Now consider O=C(N/N=C/c1ccc2no[n+]([O-])c2c1)c1cccc(O)c1 [Compound 4u] and answer again.
4.93

Another: CC(C)(C)c1ccc(C(=O)N/N=C/c2ccc(Oc3no[n+]([O-])c3-c3ccccc3)cc2)cc1 [Compound 4e]
6.10

// repeat for NC(=O)c1c(COc2ccc(/C=N/NC(=O)c3ccc([N+](=O)[O-])cc3)cc2)no[n+]1[O-] [Compound 4l] and report
4.97

Continue with NC(=O)c1c(COc2ccc(/C=N/NC(=O)c3ccccc3)cc2)no[n+]1[O-] [Compound 4h]
5.06

// repeat for NC(=O)c1c(COc2ccc(/C=N/NC(=O)c3ccc(N)cc3)cc2)no[n+]1[O-] [Compound 4j] and report
4.95

Similarly, Nc1ccc(C(=O)N/N=C/c2ccc(Oc3no[n+]([O-])c3-c3ccccc3)cc2)cc1 [Compound 4c] ?
5.70

Would you mind doing O=C(N/N=C/c1ccc(Oc2no[n+]([O-])c2-c2ccccc2)cc1)c1ccc([N+](=O)[O-])cc1 [Compound 4d] as well?
5.74

// same read-out, input: NC(=S)N/N=C/c1ccc(Oc2no[n+]([O-])c2-c2ccccc2)cc1 [Compound 4g]
5.19

What do you have for NC(=O)N/N=C/c1ccc(OCc2no[n+]([O-])c2C(N)=O)cc1 [Compound 4n] ?
4.86

---

- test.method.notes: Anti-amastigote activity in infected murine peritoneal macrophages
- Type: cell-based, L. infantum
- particulars: Swiss, mouse; CC50 macrophages / EC50 L. infantum amastigotes; read-out: SI - Selective Index (CC50/EC50)
I'd appreciate it if you could supply selectivity ratio at 24 h values for the items below.

selectivity ratio at 24 h for O=C(N/N=C/c1ccc(Oc2no[n+]([O-])c2-c2ccccc2)cc1)c1ccccc1 [Compound 4a] ?
> 357

And then CC(C)(C)c1ccc(C(=O)N/N=C/c2ccc(Oc3no[n+]([O-])c3-c3ccccc3)cc2)cc1 [Compound 4e] , what is it?
> 833

What do you have for CC(C)(C)c1ccc(C(=O)N/N=C/c2ccc(OCc3no[n+]([O-])c3C(N)=O)cc2)cc1 [Compound 4m] ?
> 78

Record: O=C(N/N=C/c1ccc(Oc2no[n+]([O-])c2-c2ccccc2)cc1)c1ccc([N+](=O)[O-])cc1 [Compound 4d]
> 128

Also NC(=O)c1c(COc2ccc(/C=N/NC(=O)c3ccccc3)cc2)no[n+]1[O-] [Compound 4h] ?
> 161

Try NC(=S)N/N=C/c1ccc(Oc2no[n+]([O-])c2-c2ccccc2)cc1 [Compound 4g] next.
> 227
